- tested target: human Claudin 18.2 (CLDN18.2) (human, UniProt P56856-2 1-261)
- protocol details: cell-based or functional assay

binder: 413H9F8-H2L1 (antibody, V domains shown, humanized IgG; constant regions not specified) VH: EVQLVESGGGLVQPGGSLRLSCAASGFTFSSFGMHWVRQAPGKGLEWVAYISSGSSPIYYVDKLKGRFTISRDNAKNSLYLQMNSLRAEDTAVYYCARAGYAVRNALDYWGQGTLVTVSS VL: DIVMTQSPDSLAVSLGERATINCKSSQSLLNVGNQKNYLAWYQQKPGQPPKLLIYGASTRESGVPDRFSGSGSGTDFTLTISSLQAEDVAVYYCQNDLFYPLTFGGGTKVEIK
readout units: nM
ADCC EC50, NUGC4-CLDN18.2, PBMC: 5.97
